- protocol_description: total protein half-life in vivo (active degradation + dilution); higher = more stable protein
- test_context: E. coli NCM3722 delta-clpP delta-lon delta-hslV; growth: N-lim chemostat; doubling time 6 h
measured_property: total protein half-life in vivo (h)

[[record]]
biosequence = "MIVLVTGATAGFGECITRRFIQQGHKVIATGRRQERLQELKDELGDNLYIAQLDVRNRAAIEEMLASLPAEWCNIDILVNNAGLALGMEPAHKASVEDWETMIDTNNKGLVYMTRAVLPGMVERNHGHIINIGSTAGSWPYAGGNVYGATKAFVRQFSLNLRTDLHGTAVRVTDIEPGLVGGTEFSNVRFKGDDGKAEKTYQNTVALTPEDVSEAVWWVSTLPAHVNINTLEMMPVTQSYAGLNVHRQ"
measured_property = "total protein half-life in vivo"
result_unit = "h"
value_observed = 5.86

[[record]]
biosequence = "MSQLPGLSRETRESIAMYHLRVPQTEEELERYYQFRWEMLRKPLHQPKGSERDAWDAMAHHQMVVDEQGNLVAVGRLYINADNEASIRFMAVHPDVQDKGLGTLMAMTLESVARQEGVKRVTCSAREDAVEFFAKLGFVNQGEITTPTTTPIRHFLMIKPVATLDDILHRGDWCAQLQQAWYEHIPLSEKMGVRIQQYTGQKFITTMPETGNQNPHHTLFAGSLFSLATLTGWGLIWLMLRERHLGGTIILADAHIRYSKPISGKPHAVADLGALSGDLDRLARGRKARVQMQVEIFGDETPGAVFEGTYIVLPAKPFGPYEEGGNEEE [P0ADQ2]"
measured_property = "total protein half-life in vivo"
result_unit = "h"
value_observed = 5.56

[[record]]
biosequence = "MKAARQQAIVDLLLNHTSLTTEALSEQLKVSKETIRRDLNELQTQGKILRNHGRAKYIHRQNQDSGDPFHIRLKSHYAHKADIAREALAWIEEGMVIALDASSTCWYLARQLPDINIQVFTNSHPICHELGKRERIQLISSGGTLERKYGCYVNPSLISQLKSLEIDLFIFSCEGIDSSGALWDSNAINADYKSMLLKRAAQSLLLIDKSKFNRSGEARIGHLDEVTHIISDERQVATSLVTA [P0ACK8]"
measured_property = "total protein half-life in vivo"
result_unit = "h"
value_observed = 4.82

[[record]]
biosequence = "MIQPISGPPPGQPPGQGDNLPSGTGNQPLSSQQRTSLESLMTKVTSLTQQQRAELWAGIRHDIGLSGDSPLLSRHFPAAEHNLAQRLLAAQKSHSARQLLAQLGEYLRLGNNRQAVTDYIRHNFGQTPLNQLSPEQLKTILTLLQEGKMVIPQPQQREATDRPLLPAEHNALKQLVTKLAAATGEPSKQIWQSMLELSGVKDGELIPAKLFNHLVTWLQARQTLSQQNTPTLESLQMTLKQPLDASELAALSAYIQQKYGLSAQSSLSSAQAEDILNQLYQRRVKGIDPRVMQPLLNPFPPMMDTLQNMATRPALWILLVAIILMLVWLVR"
measured_property = "total protein half-life in vivo"
result_unit = "h"
value_observed = 3.57

[[record]]
biosequence = "MPKFRVSLFSLALMLAVPFAPQAVAKTAAATTASQPEIASGSAMIVDLNTNKVIYSNHPDLVRPIASISKLMTAMVVLDARLPLDEKLKVDISQTPEMKGVYSRVRLNSEISRKDMLLLALMSSENRAAASLAHHYPGGYKAFIKAMNAKAKSLGMNNTRFVEPTGLSVHNVSTARDLTKLLIASKQYPLIGQLSTTREDMATFSNPTYTLPFRNTNHLVYRDNWNIQLTKTGFTNAAGHCLVMRTVINNKPVALVVMDAFGKYTHFADASRLRTWIETGKVMPVPAAALSYKKQKAAQMAAAGQTAQND [P0AFI5]"
measured_property = "total protein half-life in vivo"
result_unit = "h"
value_observed = 3.37

[[record]]
biosequence = "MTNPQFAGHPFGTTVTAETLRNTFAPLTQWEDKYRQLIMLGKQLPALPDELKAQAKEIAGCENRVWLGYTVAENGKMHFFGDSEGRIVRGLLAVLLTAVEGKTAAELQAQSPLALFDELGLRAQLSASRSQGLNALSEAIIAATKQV [P0AGF2]"
measured_property = "total protein half-life in vivo"
result_unit = "h"
value_observed = 4.97

